Consider the following compounds; for each one, report its logP.
Assay: n-Octanol/water partition coefficient, log P of compound at 50 ug at pH 7.4 measured after 2 mins by RP-HPLC analysis
Assay type: physicochemical
Conditions: pH 7.4, 2 min
One number for each entry.

Recorded results for 5 compounds are shown here.
Compound: Cc1cc(O)c(Cl)c(C)c1C[C@H](N)C(=O)N1CCC[C@H]1C(=O)N[C@@H](Cc1ccccc1)C(=O)N[C@@H](Cc1ccccc1)C(N)=O
Measured attribute: logP
Endpoint value: 1.8
//
Compound: NC(=O)[C@H](Cc1ccccc1)NC(=O)[C@H](Cc1ccccc1)NC(=O)[C@@H]1CCCN1C(=O)[C@@H](N)Cc1ccc(O)cc1 [ENDOMORPHIN 2]
Measured attribute: logP
Endpoint value: 1.13
//
Compound: Cc1cc(C[C@H](N)C(=O)N2CCC[C@H]2C(=O)N[C@@H](Cc2ccccc2)C(=O)N[C@@H](Cc2ccccc2)C(N)=O)cc(C)c1O
Measured attribute: logP
Endpoint value: 1.78
//
Compound: COc1cc(C[C@H](N)C(=O)N2CCC[C@H]2C(=O)N[C@@H](Cc2ccccc2)C(=O)N[C@@H](Cc2ccccc2)C(N)=O)cc(OC)c1O
Measured attribute: logP
Endpoint value: 0.67
//
Compound: Cc1cc(O)cc(C)c1C[C@H](N)C(=O)N1CCC[C@H]1C(=O)N[C@@H](Cc1ccccc1)C(=O)N[C@@H](Cc1ccccc1)C(N)=O
Measured attribute: logP
Endpoint value: 1.98

Moving on to another compound below.
Query string: State its logP for this compound: "NC(=O)[C@H](Cc1ccccc1)NC(=O)[C@H](Cc1ccccc1)NC(=O)[C@@H]1CCCN1C(=O)[C@@H](N)Cc1cccc(O)c1"
Result string: 1.37

All figures here come from ChEMBL document CHEMBL4396910.
